Tested on: Plasmodium falciparum
Assay: Relative IC50 against Plasmodium falciparum K1 and 3D7
Format: functional
Use 2 as the dividing line for Ratio IC50, with the line itself on the TRUE side and lower values as FALSE.

[
  {
    "molecule": "COc1c(C)c(Cc2ccc(CC(=O)N(CCNc3ccnc4cc(Cl)ccc34)C(C)C)cc2)c(OC)c2ccccc12",
    "assay-system": "Plasmodium falciparum",
    "category-label": "FALSE"
  },
  {
    "molecule": "COc1c(C)c(Cc2ccc(CC(=O)NCCNc3ccnc4cc(Cl)ccc34)cc2)c(OC)c2ccccc12",
    "assay-system": "Plasmodium falciparum",
    "category-label": "FALSE"
  },
  {
    "molecule": "COc1c(C)c(CCCCCC(=O)N(CCNc2ccnc3cc(Cl)ccc23)C(C)C)c(OC)c2ccccc12",
    "assay-system": "Plasmodium falciparum",
    "category-label": "TRUE"
  }
]

Below: the item to evaluate.
hey, is Ratio IC50 for this one >= 2? CC(C)(C)NCCNc1ccnc2cc(Cl)ccc12
TRUE
